Value source: ChEMBL document CHEMBL1140004

Biological target: Cannabinoid receptor 2 (Homo sapiens, UniProt P34972)
Sequence (P34972 whole entry): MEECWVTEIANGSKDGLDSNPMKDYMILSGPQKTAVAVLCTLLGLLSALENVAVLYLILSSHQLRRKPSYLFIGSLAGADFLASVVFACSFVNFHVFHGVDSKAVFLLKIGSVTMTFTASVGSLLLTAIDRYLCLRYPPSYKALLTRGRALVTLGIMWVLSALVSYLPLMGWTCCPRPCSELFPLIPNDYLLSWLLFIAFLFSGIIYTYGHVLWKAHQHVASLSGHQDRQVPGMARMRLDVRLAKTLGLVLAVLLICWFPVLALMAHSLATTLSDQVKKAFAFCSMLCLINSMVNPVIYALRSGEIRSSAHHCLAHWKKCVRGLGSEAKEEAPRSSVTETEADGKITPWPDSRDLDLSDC
pKi: −log10 of the molar value.
Decide by pKi: equal to or exceeding 7 means t, less means f.

Examples with answers:
INSERT INTO assay_data (compound, label) VALUES
  ('CCCN1CC(C)(C)CS/C1=N\c1ccccc1C(C)C', 'f'),
  ('CCc1ccccc1/N=C1\SCC(C)(C)CN1C(=S)SC', 't'),
  ('CSC(=S)N1CC(C)(C)CS/C1=N\c1ccccc1C', 'f'),
  ('CSC(=S)N1CC(C)(C)CS/C1=N\c1c(C)cccc1C', 'f'),
  ('CSC(=S)N1CC(C)(C)CS/C1=N\c1ccccc1Cl', 'f'),
  ('CSC(=S)N1CCC(C)S/C1=N\c1ccccc1C(C)C (stereo not given)', 'f');

# input hey, is pKi for this one >= 7? COc1ccccc1/N=C1\SCC(C)(C)CN1C(=S)SC
# output t

# input hey, is pKi for this one >= 7? CSC(=S)N1CCCS/C1=N\c1ccccc1C(C)C
# output f

# input hey, is pKi for this one >= 7? CCC(=O)N1CC(C)(C)CS/C1=N\c1ccccc1C(C)C
# output f

# input hey, is pKi for this one >= 7? CCOC(=O)N1CC(C)(C)CS/C1=N\c1ccccc1C(C)C
# output f

# input hey, is pKi for this one >= 7? CCSC(=O)N1CC(C)(C)CS/C1=N\c1ccccc1C(C)C
# output t

# input hey, is pKi for this one >= 7? CSC(=S)N1CC(C)(C)CS/C1=N\c1ccc(C(C)C)cc1
# output t

# input hey, is pKi for this one >= 7? CSC(=S)N1CC(C)(C)CS/C1=N\c1ccccc1F
# output f

# input hey, is pKi for this one >= 7? CSC(=S)N1CC(C)(C)CS/C1=N\c1ccccc1C(C)C
# output t

# input hey, is pKi for this one >= 7? CSC(=S)N1CC(C)(C)CS/C1=N\c1ccccc1-c1ccccc1
# output f

# input hey, is pKi for this one >= 7? CCCc1ccccc1/N=C1\SCC(C)(C)CN1C(=S)SC
# output t
